System: phosphorylated ERK (pERK)
Assay: Detection of phosphorylated ERK (pERK), AlphaLISA in A375 cells
Format: cell-based
Settings: four hours incubation, inhibition of ERK phosphorylation, read-out: PERK ELISA (IC50)
Property Label: IC50 (nM)

Worked set:
# Molecule, IC50 [nM]
records = [
    ("CCC(O)c1cc(C)c(-c2cc3cnc(NC(=O)[C@H]4CC4(F)F)cc3n(C)c2=O)cn1 (single isomer, unassigned) [Example S49, Isomer A]", 73.8),
    ("CCC(O)c1cc(C)c(-c2cc3cnc(NC(=O)C4CC4)cc3n(C)c2=O)c(C)c1 (stereo in doubt) [Compound 121]", 151),
]

1: COCC(O)c1cc(C)c(-c2cc3cnc(NC(=O)C4CC4)cc3n(C)c2=O)cn1 (single isomer, unassigned) [Example S60, Enantiomer A]
2: CCC(O)c1cc(C)c(-c2cc3cnc(NC(C)=O)cc3n(C)c2=O)cn1 (single isomer, unassigned) [Example S59, Enantiomer A]
Kindly compare 1 with 2 and tell me which has the lower IC50 figure. Kindly state the label of the option you pick.
2

----------
Here, each record is paired with measured IC50 data.
System: SK-MEL-30 (NRAS Q61K)
Test: Cell viability assay (CellTiter Glo)
Assay type: cell-based
Settings: SK-MEL-30, 750 cells per well, 120 hours; read-out: BRAF Cytotoxicity (IC50, nM) SK-MEL-30

# Compound, Val
measured = [
    ("CCCC(O)c1cc(C)c(-c2cc3cnc(NC(=O)[C@H]4C[C@H]4F)cc3n(C)c2=O)cn1 (single isomer, unassigned) [Example S43, Isomer B]", "> 6150 nM"),
    ("COCC(O)c1cc(C)c(-c2cc3cnc(NC(=O)C4CC4)cc3n(C)c2=O)cn1 (single isomer, unassigned) [Example S60, Enantiomer A]", "> 10000 nM"),
]

Record request: IC50 value, item CCC(O)c1cc(C)c(-c2cc3cnc(NC(=O)[C@H]4CC4(F)F)cc3n(C)c2=O)cn1 (single isomer, unassigned) [Example S49, Isomer A]
> 10000 nM
